Each entry below lists one item and its recorded intracellular Ca ion level-increasing activity (FLIPR) value.
Target: human OT7T175 (metastin receptor) (human, UniProt Q969F8 1-398)
Sequence (Q969F8 whole entry L364H): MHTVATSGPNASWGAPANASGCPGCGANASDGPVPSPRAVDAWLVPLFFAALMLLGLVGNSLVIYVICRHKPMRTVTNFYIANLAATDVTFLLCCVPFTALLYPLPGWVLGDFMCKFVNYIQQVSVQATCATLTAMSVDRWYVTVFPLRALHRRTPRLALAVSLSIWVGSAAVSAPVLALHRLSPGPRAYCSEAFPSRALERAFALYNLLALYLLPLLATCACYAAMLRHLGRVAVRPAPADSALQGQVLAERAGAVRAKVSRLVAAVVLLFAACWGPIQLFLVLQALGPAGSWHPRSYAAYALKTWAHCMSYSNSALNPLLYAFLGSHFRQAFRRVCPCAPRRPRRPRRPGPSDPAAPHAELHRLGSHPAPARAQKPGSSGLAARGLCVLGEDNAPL
Test: cell-based or functional assay
Numbered stars: 1 amine (or outer) side, 2 acyl side, 3 side chain; on linkers, the order of the positions; unused ones are H or OH. Square brackets hold non-standard residues; d marks the D form. Ends that are not written are not given here. Ala(2-Qui) = 2-quinolylalanine, O=C([C@H](Cc1ccc2ccccc2n1)N[*:1])[*:2]; Arg(Me) = CNC(=N)NCCC[C@H](N)C(=O)O; 4Pal = N[C@@H](Cc1ccncc1)C(=O)O; d4Pal = N[C@H](Cc1ccncc1)C(=O)O; Cha = N[C@@H](CC1CCCCC1)C(=O)O; azaGly = NNC(=O)O
quantity name: intracellular Ca ion level-increasing activity (FLIPR)

{"columns": ["binder", "value observed"],
 "data": [
  ["[dY]NWNTF[azaGly]L[Arg(Me)]F-NH2 [Compound No. 297: [D-Tyr1,Thr5,AzaGly7,Arg(Me)9]MS10]", "1 specific activity to metastin (1-54)"],
  ["YNWNSFGLXF (Har(Me)9; C-terminal amide) [Compound No. 312: [Har(Me)9]MS10]", "3 specific activity to metastin (1-54)"],
  ["{4‑Imidazoleacetyl}-NSF[azaGly]L[Arg(Me)]F-NH2 [Compound No. 323: des(1-3)-4-Imidazoleacetyl-[AzaGly7,Arg(Me)9]MS10]", "1 specific activity to metastin (1-54)"],
  ["[dY]N[d4Pal]NSF[azaGly]L[Arg(Me)]F-NH2 [Compound No. 302: [D-Tyr1,D-Pya(4) 3,AzaGly7,Arg(Me)9]MS10]", "2 specific activity to metastin (1-54)"],
  ["[d4Pal][dN][Cha]NSF[azaGly]L[Arg(Me)]F-NH2 (N-terminus assumed; SMILES CNC(=N)NCCC[C@H](NC(=O)[C@H](CC(C)C)NC(=O)NNC(=O)[C@H](Cc1ccccc1)NC(=O)[C@H](CO)NC(=O)[C@H](CC(N)=O)NC(=O)[C@H](CC1CCCCC1)NC(=O)[C@@H](CC(N)=O)NC(=O)[C@H](N)Cc1ccncc1)C(=O)N[C@@H](Cc1ccccc1)C(N)=O) [Compound No. 306: [D-Pya(4)1,D-Asn2,Cha3,AzaGly7,Arg(Me)9]MS10]", "2 specific activity to metastin (1-54)"],
  ["[dY]N[Ala(2-Qui)]NSF[azaGly]L[Arg(Me)]F-NH2 (N-terminus assumed; SMILES CNC(=N)NCCC[C@H](NC(=O)[C@H](CC(C)C)NC(=O)NNC(=O)[C@H](Cc1ccccc1)NC(=O)[C@H](CO)NC(=O)[C@H](CC(N)=O)NC(=O)[C@H](Cc1ccc2ccccc2n1)NC(=O)[C@H](CC(N)=O)NC(=O)[C@H](N)Cc1ccc(O)cc1)C(=O)N[C@@H](Cc1ccccc1)C(N)=O) [Compound No. 301: [D-Tyr1,Ala(2-Qui) 3,AzaGly7,Arg(Me)9]MS10]", "1 specific activity to metastin (1-54)"],
  ["[dY][dN][4Pal]NSF[azaGly]L[Arg(Me)]F-NH2 [Compound No. 303: [D-Tyr1,D-Asn2,Pya(4) 3,AzaGly7,Arg(Me)9]MS10]", "5 specific activity to metastin (1-54)"],
  ["YNWNSFGLXF (Nar(Me)9; C-terminal amide) [Compound No. 311: [Nar(Me)9]MS10]", "1 specific activity to metastin (1-54)"],
  ["[dY]NWNSFGL[Arg(Me)]F-NH2 (also: Phe6-Gly7 thioamide (CSNH), also called [6y7,CSNH,D-Tyr1,Arg(Me)9]MS10) [Compound No. 296: [6Ψ7,CSNH,D-Tyr1,Arg(Me)9]MS10]", "3 specific activity to metastin (1-54)"],
  ["Y[dN][4Pal]NSF[azaGly]L[Arg(Me)]F-NH2 [Compound No. 304: [D-Asn2,Pya(4) 3,AzaGly7,Arg(Me)9]MS10]", "3 specific activity to metastin (1-54)"],
  ["YNWNSFGLXF (Nar9; C-terminal amide) [Compound No. 310: [Nar9]MS10]", "3 specific activity to metastin (1-54)"]
]}

Where do these numbers come from? They come from patent US20060241051A1.
